Tested on: HL-60(TB) leukemia
Experiment Notes: NCI tumour cell line growth inhibition, 48 h
Endpoint: TGI

Prompt: Report TGI for O=c1cc(NCC(O)CN2CCOCC2)n(Cc2ccccc2)c(=O)n1Cc1ccccc1 (stereo not drawn) please.
Completion: > 100 µM

Prompt: Report TGI for CSC(=NC#N)S/C=C/C(=O)c1ccc(Cl)cc1 please.
Completion: > 100 µM

Prompt: Report TGI for C#CCOC(=O)C(N)C(C)O (stereo not drawn) please.
Completion: > 100 µM

---

Tested on: NCI-H460 lung
Experiment Notes: NCI tumour cell line growth inhibition, 48 h
Endpoint: TGI

Prompt: Report TGI for COc1ccc2nc3ccccc3c(NCc3ccc(Cl)cc3)c2c1 please.
Completion: 3.69 µM

Prompt: Report TGI for COC(=O)C(Cc1ccc2c(c1)CCCC2)Cc1cc2c(cc1C(O)OC)CCC2 (stereo unspecified) please.
Completion: > 100 µM

Prompt: Report TGI for O=c1cc(NCC(O)CN2CCOCC2)n(Cc2ccccc2)c(=O)n1Cc1ccccc1 (stereo unspecified) please.
Completion: > 100 µM

Prompt: Report TGI for C[C@]12CCC(=O)CC1CC[C@@H]1C2CC[C@@]2(C)C1CC[C@@H]2OC(=O)CC[Se][Se]CCC(=O)O[C@H]1CCC2[C@@H]3CCC4CC(=O)CC[C@]4(C)C3CC[C@@]21C (stereo partly specified) please.
Completion: 9.81 µM

Prompt: Report TGI for CN(/N=C(\C(=O)O)c1ccccc1)C1=NCCN1 please.
Completion: > 100 µM

Prompt: Report TGI for CCCNc1[nH]c(C(=O)c2ccccc2)c(N)c1C(=S)Nc1ccccc1 please.
Completion: > 100 µM

---

System: SK-MEL-28 melanoma
Experiment Notes: NCI tumour cell line growth inhibition, 48 h
Endpoint: TGI

Prompt: Report TGI for O=c1[nH]c2cc(F)c(F)cc2nc1Cc1ccccc1 please.
Completion: > 100 µM

Prompt: Report TGI for Cc1cc(C)n(C(=O)CSc2nc3ccc(I)cc3c(=O)n2Cc2ccccc2)n1 please.
Completion: > 100 µM

Prompt: Report TGI for O=C(/C=C/c1ccc(Br)cc1)c1ccc(NCc2nc3ccccc3[nH]2)cc1 please.
Completion: > 100 µM

Prompt: Report TGI for ClCCn1cnc2c(SCc3ccccc3Cl)ncnc21 please.
Completion: > 83.8 µM

Prompt: Report TGI for O=C(N/N=C(\CN1CCN(c2cc3[nH]cc(C(=O)O)c(=O)c3cc2F)CC1)c1ccc(Cl)cc1)c1ccncc1 please.
Completion: > 100 µM

Prompt: Report TGI for CCOC(=O)C(NC(=O)CC)(Nc1ccccc1OC)C(F)(F)F (stereo not given) please.
Completion: > 100 µM

Prompt: Report TGI for CC(=O)OCC1(C)C(OC(C)=O)CCC2(C)C(CC(OC(C)=O)C3=CCOC3=O)C(O)(CO)CCC12 (stereo not given) please.
Completion: > 100 µM

Prompt: Report TGI for CN(C)CCNc1ccc(NCC[N+](C)(C)Cc2ccc([N+](=O)[O-])cc2)c2c1C(=O)c1ccccc1C2=O please.
Completion: > 25 µM

Prompt: Report TGI for Cc1ccccc1N(CC(=O)O)S(=O)(=O)c1ccccc1 please.
Completion: > 100 µM

Prompt: Report TGI for O=C(c1cccs1)N(C(=S)N1CCN(c2ccccc2)CC1)C1CCCCC1 please.
Completion: > 100 µM

Prompt: Report TGI for C/C=C/[C@@H](C(=O)OC)N1C(=O)c2ccccc2[C@H]1O please.
Completion: > 100 µM

Prompt: Report TGI for c1ccc(C(NC2CCCCC2NCCNC2CCCCC2NC(c2ccccc2)(c2ccccc2)c2ccccc2)(c2ccccc2)c2ccccc2)cc1 (stereo not given) please.
Completion: > 100 µM

Prompt: Report TGI for c1ccc2c(c1)CCN2CCN1CCc2ccccc21 please.
Completion: > 10 µM

Prompt: Report TGI for [N-]=[N+]=NC1C2CC3C4CC5CC3[C@H](C2)C(C5)C41 (stereo not given in full) please.
Completion: > 100 µM

Prompt: Report TGI for Cn1ncc2c(Nc3ccc(Cl)cc3)c3ccccc3nc21 please.
Completion: 29.7 µM

Prompt: Report TGI for Cc1nn(C(=O)c2ccccc2O)c2c1C(c1ccco1)SC(N)=N2 (stereo not given) please.
Completion: > 10 µM

Prompt: Report TGI for CC(=O)NC(CC(C)C)C(=O)NC(CC(C)C)C(=O)NC(C=O)CCCN=C(N)N (stereo not given) please.
Completion: > 100 µM

Prompt: Report TGI for CN1c2ccccc2NC(CC(=O)O)C2CC=CN21 (stereo not given) please.
Completion: > 100 µM

Prompt: Report TGI for CCOC(=O)/C(SC#N)=C(/N)N1CCCC1 please.
Completion: > 100 µM

Prompt: Report TGI for C=CCOC(=O)C[C@H](NC(=O)[C@H](Cc1ccc(O)cc1)NCC(F)(F)F)C(=O)OCC=C please.
Completion: 44.5 µM

Prompt: Report TGI for Cc1cc(N(CCNc2ccnc3cc(Cl)ccc23)Cc2cccs2)nc(Cl)n1 please.
Completion: 3.18 µM

Prompt: Report TGI for COc1nc(Cl)nc(Cl)c1Cl (tested in a mixture with another compound) please.
Completion: 62.9 µM

Prompt: Report TGI for C=C1C(NC)CCC23CC24CCC2(C)C(C(C)=O)C(O)CC2(C)C4CCC13 (stereo not given) please.
Completion: > 100 µM

Prompt: Report TGI for N#Cc1c(Br)n(C2OC(CO)C(O)C2O)c2ncn3ccnc3c12 (stereo not given) please.
Completion: > 100 µM

Prompt: Report TGI for COc1cc(/C=C2\N=C(c3ccccc3)N(c3nc4ccc(Sc5ccccc5)cc4[nH]3)C2=O)ccc1O please.
Completion: 75.3 µM

Prompt: Report TGI for Cc1cc(C(C)C)cc(O)c(=O)c1 please.
Completion: > 100 µM

Prompt: Report TGI for OCc1ccc(N(Cc2ccc(F)cc2)CC2CC2)cc1Cl please.
Completion: 25.9 µM

Prompt: Report TGI for CC1(C)CC[C@]2(C(N)=O)CC[C@]3(C)C(=CC[C@@H]4[C@@]5(C)C/C(=C/c6cccnc6)C(=O)C(C)(C)[C@@H]5CC[C@]43C)[C@@H]2C1 please.
Completion: 4.71 µM

Prompt: Report TGI for NC(=O)NN/C=C(/C=Nc1ccccc1)[N+](=O)[O-] please.
Completion: > 100 µM

Prompt: Report TGI for O=C(O)c1ccccc1Sc1ccccc1[N+](=O)[O-] please.
Completion: > 100 µM

Numbers sourced from PubChem BioAssay (NCI).
